- study_system: human norepinephrine transporter (Homo sapiens (Human), UniProt P23975)
- Sequence (P23975 whole entry): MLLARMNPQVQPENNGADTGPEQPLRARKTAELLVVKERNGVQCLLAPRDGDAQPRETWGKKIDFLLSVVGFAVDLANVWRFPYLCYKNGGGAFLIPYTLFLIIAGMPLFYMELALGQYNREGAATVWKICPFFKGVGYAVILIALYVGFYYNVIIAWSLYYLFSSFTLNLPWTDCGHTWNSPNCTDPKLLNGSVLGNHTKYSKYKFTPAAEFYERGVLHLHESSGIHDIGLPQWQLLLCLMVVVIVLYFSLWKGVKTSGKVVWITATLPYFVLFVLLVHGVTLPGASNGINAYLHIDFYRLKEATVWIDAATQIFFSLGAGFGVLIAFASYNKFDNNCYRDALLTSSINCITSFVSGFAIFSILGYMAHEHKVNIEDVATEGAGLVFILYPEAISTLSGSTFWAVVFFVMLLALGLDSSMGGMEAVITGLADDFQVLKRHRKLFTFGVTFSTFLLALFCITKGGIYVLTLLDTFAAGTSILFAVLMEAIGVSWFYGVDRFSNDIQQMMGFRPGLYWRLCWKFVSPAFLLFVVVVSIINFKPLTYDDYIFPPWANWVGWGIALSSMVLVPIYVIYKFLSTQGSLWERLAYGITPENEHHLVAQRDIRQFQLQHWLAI
- protocol: Human NET (norepinephrine transporter) uptake assay
- Assay type: cell-based
- particulars: comparison in words, used to assign configuration
readout: potency at hNET relative to the other enantiomer or epimer

* CNCC(Cc1ccccc1CO)c1ccc2ccccc2c1 (stereo not drawn) [compound 2] | more potent
* CNC[C@H](c1ccc2ccccc2c1)[C@H](O)c1ccc2c(c1)OCCO2 | higher potency
* CNC[C@H](c1ccc(Cl)c(Cl)c1)[C@H](O)c1cccc(I)c1 | higher potency
* CNC[C@H](c1ccc2ccccc2c1)[C@H](O)c1cc(F)cc(F)c1 (single isomer, unassigned) | more potent
* CNC[C@@H](c1ccc(Cl)c(Cl)c1)[C@@H](OC)c1cccc(NS(=O)(=O)C(F)(F)F)c1 | less potent

Hey, quick one: what's potency at hNET relative to the other enantiomer or epimer for each of these?
1. CNC[C@H](c1ccc(Cl)c(Cl)c1)[C@@H](O)c1ccccc1SC
2. CNC[C@H](c1ccc(OC)c(C)c1)[C@H](O)c1cccnc1
3. CNCC(CCc1ccccc1)[C@@H](O)c1ccccc1 (stereo partly drawn) [compound 27]
4. CNCC(CCc1ccccc1)[C@@H](O)c1ccccc1 (stereo partly drawn) [compound 147]

Response:
1. more potent
2. more potent
3. more potent
4. lower potency

Hey, quick one: what's potency at hNET relative to the other enantiomer or epimer for each of these?
1. NC[C@@H](c1ccc2ccccc2c1)C(O)c1ccncc1Cl (stereo partly drawn)
2. CNC[C@H](c1ccc2ccccc2c1)[C@H](O)c1cncc(OC)c1
3. CNC[C@@H](c1ccc(Cl)c(Cl)c1)[C@@H](O)c1cccc(Br)c1
4. CNC[C@H](c1ccc(Br)c(Cl)c1)[C@@H](O)c1ccccc1
5. CNC[C@H](c1ccc(Cl)c(Cl)c1)[C@H](O)c1cncc(OC)c1

Response:
1: lower potency; 2: more potent; 3: less potent; 4: more potent; 5: more potent

---

- study_system: human norepinephrine transporter (Homo sapiens (Human))
- protocol: Human NET (norepinephrine transporter) uptake assay
- Type: cell-based
- particulars: read-out: hNET Ki
I'd appreciate it if you could supply pKi values for the items below.
One number for each entry, as −log10 of the molar value.

• CNC[C@H](c1ccc2ccccc2c1)[C@@H](O)c1ccncc1Cl = 8.85
• CNC[C@@H](c1ccc(Cl)c(Cl)c1)[C@@H](O)c1ccsc1 [Compound 153] = 8.41
• CNC[C@H](c1ccc2ccccc2c1)[C@H](OC)c1ccc2c(c1)OCO2 (racemic) = 7.43
• CNC[C@H](c1ccc2ccccc2c1)[C@H](N)c1ccccc1 = 7.74

Okay, next one:
Looking up CNC[C@H](c1ccc(Cl)c(Cl)c1)[C@@H](O)c1cccc(NC(C)=O)c1 , I see its pKi listed as 7.48

---

- study_system: human dopamine transporter (Homo sapiens (Human))
- Sequence (Q01959 whole entry): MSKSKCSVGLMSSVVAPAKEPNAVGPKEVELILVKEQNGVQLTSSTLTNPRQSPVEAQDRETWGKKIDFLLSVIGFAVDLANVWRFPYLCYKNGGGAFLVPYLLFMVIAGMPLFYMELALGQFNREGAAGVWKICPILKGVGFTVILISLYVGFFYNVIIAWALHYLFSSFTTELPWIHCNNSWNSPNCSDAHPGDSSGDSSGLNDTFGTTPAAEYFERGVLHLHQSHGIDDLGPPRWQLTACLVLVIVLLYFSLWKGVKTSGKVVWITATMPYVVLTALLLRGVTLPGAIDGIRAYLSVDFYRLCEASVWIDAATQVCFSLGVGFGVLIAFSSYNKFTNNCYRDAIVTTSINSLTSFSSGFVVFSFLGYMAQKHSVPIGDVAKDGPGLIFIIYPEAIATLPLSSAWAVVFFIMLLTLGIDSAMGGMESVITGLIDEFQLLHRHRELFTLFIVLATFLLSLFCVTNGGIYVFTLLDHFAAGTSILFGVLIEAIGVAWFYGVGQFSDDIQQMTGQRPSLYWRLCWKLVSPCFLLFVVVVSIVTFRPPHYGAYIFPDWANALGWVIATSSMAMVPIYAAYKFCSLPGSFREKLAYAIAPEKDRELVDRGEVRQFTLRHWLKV
- protocol: Human DAT (dopamine transporter) uptake assay
- Type: cell-based
- particulars: read-out: hDAT Ki
- Procedure: This protocol was designed to measure inhibition of uptake by the human dopamine transporter. […] The Assay Buffer (AB) was 1×HBSS and 0.02 M HEPES. The HEK293F cells were transfected with the human dopamine transporter and frozen in 1 mL aliquots at about 1E+07 cells/mL. […] A 1 mL sample (1:2 dilution) was prepared, and the cells were counted. […] Due to the proprietary nature of the dye formulation, all dye concentrations were expressed as a percentage of the vendor-recommended dye reconstitution. […]
readout: pKi
Give bare numbers, as −log10 of the molar value.

- CNCC(CCc1ccccc1)[C@@H](O)c1ccccc1 (stereo partly drawn) [Compound 147]: 6.92

Hey, quick one: what's pKi for each of these?
1. CNCC(CCc1ccccc1)[C@@H](O)c1ccccc1 (stereo partly drawn) [Compound 27]
2. CNC[C@H](c1ccc2ccccc2c1)[C@H](Cl)c1ccccc1
3. NC[C@H](c1ccc2ccccc2c1)[C@@H](O)c1ccncc1Cl

Response:
7.01
6.84
7.51

Hey, quick one: what's pKi for each of these?
1. CNC[C@H](c1ccc2ccccc2c1)[C@H](O)c1cc(F)cc(F)c1 (racemic) [Compound 41]
2. CNC[C@H](c1ccc(Cl)c(Cl)c1)[C@H](O)c1ccccc1

Response:
1. 7.97
2. 8.14

Origin of measurements: patent US9944618B2
